# tested_target: human androgen receptor (Homo sapiens, UniProt P10275)
# Construct: expressed in transfected cells; host or cells: Chinese hamster ovary (CHO) cells, cell line CHO-AR-pMMTV-LUC 1G12-A5-CA
# experiment_summary: Androgen receptor transactivation assay, androgenic activity in the presence of 0.1 µmol/l onapristone (CHO-AR-pMMTV-LUC cells; Table 5)
# Assay type: cell-based
# conditions_used: maximal intrinsic activity in the presence of 100 nM DHT set at 1.00
experimental_readout: ago efficacy

smiles_code	value_reported
Cn1cnc(S(=O)(=O)Nc2ccc3c(Sc4ccccc4[N+](=O)[O-])cn(Cc4cc(F)cc(F)c4)c3c2)c1	++ (≥0.80)
N#Cc1ccc2c(Sc3ccccc3[N+](=O)[O-])cn(Cc3cccnc3)c2c1	++ (≥0.80)
O=C(CF)Nc1ccc2c(Sc3ccccc3[N+](=O)[O-])cn(Cc3ccccn3)c2c1	++ (≥0.80)

---

# tested_target: human androgen receptor (Homo sapiens, UniProt P10275)
# Construct: expressed in transfected cells; host or cells: Chinese hamster ovary (CHO) cells, cell line CHO-AR-pMMTV-LUC 1G12-A5-CA
# Sequence (P10275 1-920): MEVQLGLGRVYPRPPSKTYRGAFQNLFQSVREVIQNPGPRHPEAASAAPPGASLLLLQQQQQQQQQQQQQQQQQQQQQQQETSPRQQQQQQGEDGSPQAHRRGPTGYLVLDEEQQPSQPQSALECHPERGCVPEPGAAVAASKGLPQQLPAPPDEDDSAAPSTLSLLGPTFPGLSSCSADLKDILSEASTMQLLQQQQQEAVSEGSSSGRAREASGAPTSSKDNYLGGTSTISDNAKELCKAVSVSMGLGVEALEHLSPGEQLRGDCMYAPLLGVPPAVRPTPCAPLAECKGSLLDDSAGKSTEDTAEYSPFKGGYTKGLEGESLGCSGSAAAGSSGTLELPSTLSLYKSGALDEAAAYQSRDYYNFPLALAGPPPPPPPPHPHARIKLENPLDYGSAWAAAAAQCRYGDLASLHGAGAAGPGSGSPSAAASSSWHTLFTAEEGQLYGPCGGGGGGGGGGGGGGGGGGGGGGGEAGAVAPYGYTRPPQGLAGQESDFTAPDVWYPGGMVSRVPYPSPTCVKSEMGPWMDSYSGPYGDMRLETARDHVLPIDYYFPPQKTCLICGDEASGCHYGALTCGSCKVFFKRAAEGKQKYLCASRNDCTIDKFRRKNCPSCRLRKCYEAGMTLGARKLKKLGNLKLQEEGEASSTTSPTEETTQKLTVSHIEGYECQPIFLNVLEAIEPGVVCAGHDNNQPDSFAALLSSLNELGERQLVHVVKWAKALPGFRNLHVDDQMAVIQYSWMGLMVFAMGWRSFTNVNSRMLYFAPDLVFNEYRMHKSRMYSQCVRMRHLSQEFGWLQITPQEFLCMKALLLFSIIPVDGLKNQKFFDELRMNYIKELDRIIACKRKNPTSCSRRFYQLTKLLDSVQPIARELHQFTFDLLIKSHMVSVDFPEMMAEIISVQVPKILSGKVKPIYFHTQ
# experiment_summary: Androgen receptor transactivation assay, androgenic activity in the presence of 0.1 µmol/l onapristone (CHO-AR-pMMTV-LUC cells; Table 5)
# Format: cell-based
# conditions_used: potency expressed as percentage of DHT activity
experimental_readout: ago potency

compound	ago potency
CNC(=O)c1ccc2c(Sc3ccccc3[N+](=O)[O-])cn(Cc3cccnc3)c2c1 [Compound 112]	+ (between 1% and 5%)
CC(=O)Nc1ccc2c(Sc3ccccc3[N+](=O)[O-])cn(Cc3ccccn3)c2c1 [Compound 101]	+ (between 1% and 5%)
N#Cc1cccc(Cn2cc(Sc3ccccc3[N+](=O)[O-])c3ccc(C#N)cc32)c1 [Compound 125]	+ (between 1% and 5%)
N#Cc1ccc2c(Sc3ccccc3[N+](=O)[O-])cn(Cc3cccnc3)c2c1 [Compound 121]	+ (between 1% and 5%)

Assign ago potency to the following record: O=[N+]([O-])c1ccccc1Sc1cn(Cc2cc(F)cc(F)c2)c2cc(NS(=O)(=O)c3ccsc3)ccc12 [Compound 107] + (between 1% and 5%)

Assign ago potency to the following record: O=C(CF)Nc1ccc2c(Sc3ccccc3[N+](=O)[O-])cn(Cc3ccccn3)c2c1 [Compound 100] + (between 1% and 5%)

Please look at this compound and report its ago potency: COc1ccc2c(Sc3ccccc3[N+](=O)[O-])cn(Cc3cnccn3)c2c1 [Compound 117] + (between 1% and 5%)

Consider the compound CCC(=O)Nc1ccc2c(Sc3ccccc3[N+](=O)[O-])cn(Cc3ccccn3)c2c1 [Compound 102] . State its measured ago potency. + (between 1% and 5%)

Note ago potency for the compound shown: N#Cc1ccc2c(Sc3ccccc3[N+](=O)[O-])cn(Cc3ccncn3)c2c1 [Compound 124] ++ (>5%)

Assign ago potency to the following record: O=C(CF)Nc1ccc2c(Sc3ccccc3[N+](=O)[O-])cn(Cc3cc(F)cc(F)c3)c2c1 [Compound 97] + (between 1% and 5%)

Supply recorded ago potency for COc1ccc2c(Sc3ccccc3[N+](=O)[O-])cn(Cc3ccncn3)c2c1 [Compound 116] here. + (between 1% and 5%)

Look up and report measured ago potency for this entry: O=C(Nc1ccc2c(Sc3ccccc3[N+](=O)[O-])cn(Cc3cc(F)cc(F)c3)c2c1)C(F)F [Compound 98] ++ (>5%)
